# Tested on: HEK293
# experiment: Cytotoxic Profiling of Annotated Libraries Using Quantitative High-Throughput Screening (AID 1296008); note: nearly all actives have a fitted effect of over 60% in size
# condition: Five cell lines viability, CellTiter-Glo ATP luminescence, 48-72 h
Records with an inconclusive call do not appear. Active and inactive are the calls of the source. Calls come from the whole dose curve; as a rule, active = well fitted inhibition curve with a large enough effect; inconclusive = small, poorly fitted or top-dose-only effect; inactive = flat fitted curve, though single readings scatter.
Possible outcomes: active, inactive

{"columns": ["compound", "group.label"],
 "data": [
  ["CN(C)C(=O)c1ccc(S(=O)(=O)c2ccc(NC(=O)[C@@](C)(O)C(F)(F)F)c(Cl)c2)cc1", "active"],
  ["N=c1nc(N2CCCCC2)cc(N)n1O", "inactive"],
  ["Cc1[nH]c(=O)c(C#N)cc1-c1ccncc1", "inactive"],
  ["CCOc1ccn(-c2ccc(F)cc2)c(=O)c1C(=O)Nc1ccc(Oc2ccnc(N)c2Cl)c(F)c1", "active"],
  ["CC[C@H](Nc1ncnc2nc[nH]c12)c1nc2cccc(F)c2c(=O)n1-c1ccccc1", "active"],
  ["CNCc1ccc(-c2[nH]c3cc(F)cc4c3c2CCNC4=O)cc1", "active"],
  ["CCCS(=O)(=O)Nc1ccc(F)c(C(=O)c2c[nH]c3ncc(Cl)cc23)c1F", "active"],
  ["NC(=O)c1ccc(I)c([N+](=O)[O-])c1", "inactive"],
  ["COc1ccc(-c2oc3cc(OC)ccc3c2C(=O)c2ccc(C#N)cc2)cc1", "inactive"],
  ["c1ccc([C@H]2CN3CCSC3=N2)cc1", "inactive"],
  ["COc1ccc(-c2ccc3c(N4CCOCC4)nc(N4C[C@@H](C)O[C@@H](C)C4)nc3n2)cc1CO", "active"],
  ["CC(c1cc2ccccc2s1)N(O)C(N)=O (configuration not stated)", "inactive"],
  ["CCc1ccc(CCOc2ccc(CC3SC(=O)NC3=O)cc2)nc1 (configuration not stated)", "inactive"],
  ["COc1ccc(C2=N[C@H](c3ccc(Cl)cc3)[C@H](c3ccc(Cl)cc3)N2C(=O)N2CCNC(=O)C2)c(OC(C)C)c1", "active"],
  ["Cc1cc(-c2ccc(CC(=O)Nc3ccc(-c4cccnc4)cc3)cc2)ccn1", "active"],
  ["CCCCNc1cc(C(=O)O)cc(S(N)(=O)=O)c1Oc1ccccc1", "inactive"],
  ["OC(CCN1CCCCC1)(c1ccccc1)C1CC2C=CC1C2 (configuration not stated)", "inactive"],
  ["CC1(C)Cc2c(-c3ccccc3)c(-c3ccc(Cl)cc3)c(CC(=O)O)n2C1", "active"],
  ["O=C(O)CCc1ccc(NCc2cccc(Oc3ccccc3)c2)cc1", "inactive"],
  ["O=C1CCC(N2C(=O)c3ccccc3C2=O)C(=O)N1 (configuration not stated)", "inactive"],
  ["CNC(=O)c1ccc(C)c(-n2c(C)cc(OCc3ccc(F)cc3F)c(Br)c2=O)c1", "active"],
  ["CC(C[N+](C)(C)C)OC(N)=O (configuration not stated)", "inactive"]
]}

* * *

# System: Zika virus NS2B-NS3 protease
# experiment: Primary screen GU AMC qHTS for Zika virus inhibitors (AID 1347154); note: nearly all actives have a fitted effect of over 70% in size
# condition: Zika NS2B-NS3 unlinked protease, AMC fluorogenic substrate; series mostly up to 54.1 µM
# Source text: Avindra Nath, Ph.D., National Institute of Neurological Disorders and Stroke (NINDS), Bethesda, MD Radhakrishnan Padmanabhan, Ph.D., Georgetown University (GU), Washington D.C. Zika Virus causes congenital defects, including microcephaly and is associated with Guillain-Barre syndrome, eningoencephalitis and myelitis in infected adult. […]
Records with an inconclusive call do not appear. Active and inactive are the calls of the source. The call rests on the fitted dose curve; in most records, active means well fitted inhibition curve with a large enough effect; inconclusive means small, poorly fitted or top-dose-only effect; inactive means flat fitted curve, though single readings scatter.

{"columns": ["molecule", "outcome"],
 "data": [
  ["c1ccc(-c2nn3c(c2-c2ccnc4cc(OCCN5CCOCC5)ccc24)CCC3)nc1", "inactive"],
  ["Cn1c(=O)c(F)c(Nc2ccc(I)cc2F)c2c(=O)n(C[C@@H](O)CO)cnc21", "inactive"],
  ["Cn1cnc2c(F)c(Nc3ccc(Br)cc3Cl)c(C(=O)NOCCO)cc21", "inactive"],
  ["CCOc1ccn(-c2ccc(F)cc2)c(=O)c1C(=O)Nc1ccc(Oc2ccnc(N)c2Cl)c(F)c1", "inactive"],
  ["CN(C)c1ccc(Nc2nc(N)n(C(=O)c3c(F)cccc3F)n2)cc1", "inactive"],
  ["COc1ccc(CC2=NN3C([C@@H](CCc4ccccc4)[C@@H](C)O)=NC(C)C3C(=O)N2)cc1OC (stereo not given in full)", "inactive"],
  ["CCOc1cc(C=C2C(=O)N(c3ccccc3)N=C2C)cc(Cl)c1OCC(=O)OC", "inactive"],
  ["CC(C=CC1=C(C)CCCC1(C)C)=CC=CC(C)=CC(=O)O", "inactive"],
  ["Cc1ccccc1C(OCCN(C)C)c1ccccc1 (stereo not given)", "inactive"],
  ["CCOC(=O)C1=C[C@]2(CC)CCCN3CCc4c(n1c1ccccc41)[C@@H]32", "inactive"]
]}
